Tested on: MIA PaCa-2
measurement.protocol: Cytotoxicity against human MIAPaCa2 cells transfected with retroviral expression vector pMSCV-LucSh assessed as growth inhibition at 50 uM after 72 hrs by MTS assay
Assay type: functional, cell-based
The source made the active and inactive calls. No cut-off for these calls is given here.
Hi there, use one of these labels in your reply, thanks! class 1 = active, class 0 = inactive

Known results for molecules:
CCCN(CCN(C)C)c1ccccn1    class 0
CCCCCCN(CCN(C)C)c1ccccc1    class 0
CCCCCCCCCCN(CCN(C)C)c1ccccn1    class 1
CN(C)CCNc1ccccn1    class 0
CN(C)CCN(Cc1ccc(Cl)cc1)c1ccc2ccccc2n1    class 1

Task: # lookup: test call for CCCCCCCCCCCCN(CCN(C)C)c1ccccn1
Result: class 1

Task: Similarly, CCCCCCCCN(CCN(C)C)c1ccccn1 ?
Result: class 1
